Data origin, for the record: patent US10526316B2

Hi! I'm sharing some Kd results obtained with kinase enzymes (Homo sapiens, UniProt P42336).
Sequence (P42336 whole entry): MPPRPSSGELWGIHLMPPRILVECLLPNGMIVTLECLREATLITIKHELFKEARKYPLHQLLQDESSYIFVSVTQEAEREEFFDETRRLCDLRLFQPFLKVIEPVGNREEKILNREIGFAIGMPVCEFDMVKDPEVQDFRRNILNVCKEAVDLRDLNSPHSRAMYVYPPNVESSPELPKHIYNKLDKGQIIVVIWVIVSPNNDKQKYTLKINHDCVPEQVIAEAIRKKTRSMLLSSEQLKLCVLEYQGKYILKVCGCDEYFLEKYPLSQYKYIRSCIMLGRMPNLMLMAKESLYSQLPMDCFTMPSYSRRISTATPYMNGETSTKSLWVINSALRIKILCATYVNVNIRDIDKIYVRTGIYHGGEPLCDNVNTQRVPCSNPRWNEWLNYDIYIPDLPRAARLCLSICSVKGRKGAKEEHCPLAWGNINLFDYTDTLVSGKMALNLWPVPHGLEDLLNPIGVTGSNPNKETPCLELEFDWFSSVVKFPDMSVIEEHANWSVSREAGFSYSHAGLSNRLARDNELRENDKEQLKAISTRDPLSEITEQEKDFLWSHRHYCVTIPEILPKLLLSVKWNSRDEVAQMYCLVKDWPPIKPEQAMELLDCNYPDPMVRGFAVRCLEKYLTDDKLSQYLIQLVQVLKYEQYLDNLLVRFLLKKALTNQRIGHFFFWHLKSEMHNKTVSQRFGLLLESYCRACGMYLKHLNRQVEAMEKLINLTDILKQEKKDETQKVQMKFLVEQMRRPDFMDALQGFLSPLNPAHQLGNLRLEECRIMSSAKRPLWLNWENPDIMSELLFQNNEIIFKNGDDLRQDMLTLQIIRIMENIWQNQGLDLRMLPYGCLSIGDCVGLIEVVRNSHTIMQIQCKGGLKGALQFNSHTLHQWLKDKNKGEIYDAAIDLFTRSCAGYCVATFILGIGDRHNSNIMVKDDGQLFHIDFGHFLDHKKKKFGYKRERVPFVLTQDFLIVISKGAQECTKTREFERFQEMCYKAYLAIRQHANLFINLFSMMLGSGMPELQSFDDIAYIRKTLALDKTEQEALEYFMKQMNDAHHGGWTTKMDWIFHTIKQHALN
Numbers only, in nM.

Illustrative cases are given below, each with its answer.
molecule: CC(Nc1cc(F)c(F)c(F)c1)c1cc(C(=O)N(C)C2CCNC2)cc2ncc(N3CCOCC3)nc12 (single isomer, unassigned) [Compound 296a]
Kd (nM): 1380

molecule: CC(Nc1ccc(F)c(F)c1)c1cc(C(=O)N2CCC[C@H](O)C2)cc2ncc(N3CCOCC3)nc12 (single isomer, unassigned) [Compound 302b]
Kd (nM): 1100

molecule: Cc1c(F)cccc1CNc1cc(C(=O)NCCN(C)C)cc2ncc(N3CCOCC3)nc12 [Compound 383]
Kd (nM): 1230

molecule: CC(Nc1cccc(Br)c1)c1cc(C(=O)N2CCOCC2)cc2ncc(N3CCOCC3)nc12 (stereo not drawn) [Compound 124]
Kd (nM): 1070

molecule: CC(Nc1cc(F)cc(F)c1)c1cc(C(=O)N2CCNC(C(F)(F)F)C2)cc2ncc(N3CCOCC3)nc12 (single isomer, unassigned) [Compound 237b]
Kd (nM): 8710

Provide Kd values for the following items, in order.
1. C[C@@H](Nc1cc(F)cc(F)c1)c1cc(C(=O)NCCN(C)C)cc2ncc(N3CCOCC3)nc12 [Compound 184]
2. C[C@H](CO)NCc1ccc(F)cc1N1CCCC1c1cc(C(=O)N(C)C)cc2ncc(N3CCOCC3)nc12 (mixture of isomers) [Compound 67]
3. O=C(NCCO)c1cc(N2CCC2c2ccc(F)cc2)c2nc(N3CCOCC3)cnc2c1 (stereo not drawn) [Compound 391]
4. CC(C)NCCNC(=O)c1cc(C(C)Nc2cccc(F)c2)c2nc(N3CCOCC3)cnc2c1 (stereo not drawn) [Compound 226]

output:
[599, 2460, 5490, 2570]

###

# Test system: Akt phosphorylated at Ser473 in PC-3 cells
# experiment.description: Cellular assay: phosphorylation of Akt at Ser473 in PC-3 cells (MSD ELISA)
# Type: cell-based
# condition.context: PC-3 cells, 60 min compound incubation, MSD ELISA; read-out: IC50 pAkt_S473
measure: IC50

Provide IC50 values for the following items, in order.
1. CC(Nc1ccc(F)c(F)c1)c1cc(C(=O)N[C@H]2CCNC2)cc2ncc(N3CCOCC3)nc12 (single isomer, unassigned) [Compound 374a]
2. OC(CN1CCC1)c1cc(C2CCCN2c2cc(F)cc(F)c2)c2nc(N3CCOCC3)cnc2c1 (single isomer, unassigned) [Compound 95]

output:
["32 nM", "34 nM"]

###

Can you tell me pKd for the items I'm about to list?
# measurement.target: PI3Kβ (Homo sapiens, UniProt P42338)
# Construct: purchased DiscoveRx Corporation, San Diego (contract service, KINOMEscan)
# Sequence (P42338 whole entry): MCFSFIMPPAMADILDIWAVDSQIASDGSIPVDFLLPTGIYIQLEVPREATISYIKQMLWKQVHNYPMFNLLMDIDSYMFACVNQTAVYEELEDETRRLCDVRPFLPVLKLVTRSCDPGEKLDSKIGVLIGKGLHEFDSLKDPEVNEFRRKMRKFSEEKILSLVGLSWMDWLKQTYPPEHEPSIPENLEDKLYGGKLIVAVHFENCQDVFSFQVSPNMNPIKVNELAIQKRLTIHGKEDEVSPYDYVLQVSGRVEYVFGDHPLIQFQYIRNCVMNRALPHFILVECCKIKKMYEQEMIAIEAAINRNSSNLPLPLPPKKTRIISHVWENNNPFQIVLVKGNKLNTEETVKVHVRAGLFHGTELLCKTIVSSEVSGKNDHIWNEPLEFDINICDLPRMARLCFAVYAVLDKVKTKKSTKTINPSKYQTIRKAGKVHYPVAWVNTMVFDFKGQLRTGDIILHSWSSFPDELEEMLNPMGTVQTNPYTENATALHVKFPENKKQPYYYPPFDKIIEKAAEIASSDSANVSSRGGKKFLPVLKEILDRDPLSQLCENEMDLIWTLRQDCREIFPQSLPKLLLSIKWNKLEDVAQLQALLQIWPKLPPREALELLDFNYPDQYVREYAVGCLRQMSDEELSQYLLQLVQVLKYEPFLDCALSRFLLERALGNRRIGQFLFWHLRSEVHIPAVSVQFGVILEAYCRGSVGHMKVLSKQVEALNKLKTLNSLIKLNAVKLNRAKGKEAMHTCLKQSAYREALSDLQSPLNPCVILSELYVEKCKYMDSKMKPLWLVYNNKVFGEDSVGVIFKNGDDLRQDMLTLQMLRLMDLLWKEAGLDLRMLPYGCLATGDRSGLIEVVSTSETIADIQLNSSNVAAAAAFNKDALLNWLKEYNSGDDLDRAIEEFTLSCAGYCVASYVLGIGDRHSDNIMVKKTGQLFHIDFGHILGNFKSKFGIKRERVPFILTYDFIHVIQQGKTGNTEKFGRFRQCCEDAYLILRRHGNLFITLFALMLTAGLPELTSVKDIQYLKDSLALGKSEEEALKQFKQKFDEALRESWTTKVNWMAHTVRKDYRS
# experiment.description: Enzyme binding assay (KINOMEscan, DiscoveRx)
# condition.context: PIK3Cβ_h, read-out: Kd PIK3Cβ_h
Give bare numbers, as −log10 of the molar value.

Provide pKd values for the following items, in order.
1. CN(C)C(=O)c1cc(N2CCCC2c2cc(F)cc(F)c2)c2nc(N3CCOCC3)cnc2c1 (single isomer, unassigned) [Compound 395a]
2. CNCCNC(=O)c1cc(C(C)Nc2cccc(F)c2)c2nc(N3CCOCC3)cnc2c1 (single isomer, unassigned) [Compound 139]
3. CC(Nc1cc(F)cc(F)c1)c1cc(C(=O)N2CCOCC2)cc2ncc(N3CCOCC3)nc12 (single isomer, unassigned) [Compound 9]

output:
1. 7.48
2. 7.39
3. 6.38

Provide pKd values for the following items, in order.
1. CC(Oc1cccc(F)c1)c1cc(C(=O)N2CCC[C@H]2CO)cc2ncc(N3CCOCC3)nc12 (single isomer, unassigned) [Compound 87]
2. CC(Nc1cccc(F)c1)c1cc(C(=O)NC[C@@H](C)O)cc2ncc(N3CCOCC3)nc12 (single isomer, unassigned) [Compound 338a]
3. CC(Nc1cccc(F)c1)c1cc(C(=O)N2CCOCC2)cc2ncc(N3CCOCC3)nc12 (centres unmarked) [Compound 104]
4. CN(C)C(=O)c1cc(C2CCCN2c2ccccc2)c2nc(N3CCOCC3)cnc2c1 (centres unmarked) [Compound 27]

output:
1: 5.86; 2: 7.96; 3: 8.52; 4: 9.00

Value of measured pKd for the entry Cc1c(N2CCCC2c2cc(C(=O)N(C)C)cc3ncc(N4CCOCC4)nc23)cccc1C(F)(F)F (centres unmarked) [Compound 55] : 5.40
